Data origin, for the record: the supplement of paper PMC12764529

experiment: folding stability dG unfold from chymotrypsin proteolysis; higher = more stable
Property: folding stability dG unfold; scope: individual sequences
Write down the numeric answer in kcal/mol and omit the unit.

SAGGTKTINIKNMPPNDPERMVRTARHLLKELKQKGPGKTITIHMDNPWAREVAEYLKKEGIPIEVHSAGGS [r16_450_TrROS] = 1.09
SAGGSAGGSKMRERTITFPNAKITIWYHPDGNVRMEVMNPGNGKPKREIWMKPGDIEEILKKFSAGGSAGGS [r20_129_TrROS] = 2.58
SAPAVETRSVTTEPVASPTPRVPYTLVVESVTTTAVDAAGTPVATSVSLKEVRYGDGTISRTFSATPTASAG [r14_848_JUSTAS] = -0.953

Now examine the next entry.
folding stability dG unfold recorded for this sequence, SAGGSAGGSAGGPIRIKNIENVNPDDGMFTVDVEFPDGKNHTYMIPPDQLEEPGDEIEIPSAGGSAGGSAGG [r7_117_TrROS] , is -0.696
